Taken from ChEMBL document CHEMBL4145619.

- target.system: Retinoic acid receptor RXR-alpha (Homo sapiens) (UniProt P19793)
- Sequence (P19793 whole entry, the tested form may be a part): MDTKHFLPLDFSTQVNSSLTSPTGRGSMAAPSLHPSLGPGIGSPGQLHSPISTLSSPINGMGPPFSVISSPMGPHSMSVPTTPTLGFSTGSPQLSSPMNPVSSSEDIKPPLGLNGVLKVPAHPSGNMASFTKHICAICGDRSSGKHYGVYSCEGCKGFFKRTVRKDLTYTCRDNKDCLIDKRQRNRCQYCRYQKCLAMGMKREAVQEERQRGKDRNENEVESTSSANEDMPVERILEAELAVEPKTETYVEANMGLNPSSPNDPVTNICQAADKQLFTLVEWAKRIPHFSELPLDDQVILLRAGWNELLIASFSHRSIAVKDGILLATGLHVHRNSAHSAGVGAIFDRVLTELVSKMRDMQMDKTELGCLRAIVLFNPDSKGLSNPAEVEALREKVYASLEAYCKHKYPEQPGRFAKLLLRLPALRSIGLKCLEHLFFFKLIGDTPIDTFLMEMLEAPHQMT
- assay.notes: Transactivation of human Gal4-fused RXRalpha LBD expressed in HEK293T cells after 12 to 14 hrs by dual-glo luciferase assay relative to bexarotene
- Assay type: cell-based
Listed below: fold change (FC) values for each entry.
value.kind: fold change (FC)

| molecule | value.kind | test.value |
| --- | --- | --- |
| CC1=C2[C@H](/C=C(\C)C(=O)O)CC[C@@H](C)[C@H]2CC1 | fold change (FC) | 9 |
| C=C[C@@]1(C)CC[C@H]2C(=CC[C@@H]3[C@]2(C)CCC[C@@]3(C)C(=O)O)C1 | fold change (FC) | 13 |
| Cc1ccc(C)n1-c1ccc(CCCC(=O)O)cc1 | fold change (FC) | 31 |
| Cc1c2c(n(-c3ccc(CC(=O)O)cc3)c1C)CCC(F)(F)C2 | fold change (FC) | 69 |
| Cc1ccc(-n2c(C)c(C)c3c2CCC(F)(F)C3)cc1O | fold change (FC) | 26 |
| Cc1c2c(n(C[C@H]3CC[C@H](C(=O)O)CC3)c1C)CCC(F)(F)C2 | fold change (FC) | 69 |
| CC(C)=C(C)c1ccc(-c2cnc(CCC(=O)O)o2)cc1 | fold change (FC) | 2.8 |
| CC(C)c1ccc2c(c1)CC[C@H]1[C@](C)(C(=O)O)CCC[C@]21C [DEHYDROABIETIC ACID] | fold change (FC) | 9 |
| Cc1c2c(n(-c3ccc(CCCC(=O)O)cc3)c1C)CCC(F)(F)C2 | fold change (FC) | 56 |
